Readings of growth inhibition for the listed molecules
# method: NCI Yeast Anticancer Drug Screen. Data for the rad50EPP+ strain (AID 151);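 further: 0% = growth of vehicle-treated control cultures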
# run-conditions: S. cerevisiae rad50 mutant strain, at 33.0 µM, stronger effect = higher value
This is part of a sample that, as a whole, favours compounds with a hit. Of some 79,000 tested, about 15% had one in any assay.

| molecule | growth inhibition (%) |
| --- | --- |
| [N-]=[N+]=NC(c1ccccc1)(c1ccccc1)c1ccccc1 | 21 |
| CN[C@@H]1C[C@H]2O[C@@](C)([C@@H]1OC)n1c3ccccc3c3c4c(c5c6ccccc6n2c5c31)C(=O)N[C@@H]4O | -11 |
| Clc1c(Cl)c(Cl)c2c(nnn2C2CCCO2)c1Cl (stereo not given) | -4 |
| CC(=O)OCC1OC(O[C@H]2C=C[C@@H](C(=O)OCc3ccccc3)n3c(=O)n(-c4ccccc4)c(=O)n32)C(OC(C)=O)C(OC(C)=O)C1OC(C)=O (stereo not given in full) | 16 |
| N#CC(=C1C=CC(=NO)C=C1)c1ccccc1 | 99 |
